Sequence of the target: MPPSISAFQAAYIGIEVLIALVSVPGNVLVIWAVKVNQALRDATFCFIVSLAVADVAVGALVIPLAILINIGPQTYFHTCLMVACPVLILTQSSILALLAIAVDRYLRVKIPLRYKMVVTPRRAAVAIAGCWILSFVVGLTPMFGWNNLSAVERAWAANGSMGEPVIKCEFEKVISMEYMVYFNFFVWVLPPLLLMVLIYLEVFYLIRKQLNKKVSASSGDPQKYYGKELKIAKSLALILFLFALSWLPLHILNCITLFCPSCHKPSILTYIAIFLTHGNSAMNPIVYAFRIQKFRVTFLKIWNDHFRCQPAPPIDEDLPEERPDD
pKi: −log10 of the molar value.
Please mark Criterion met if the recorded pKi is equal to or greater than 6, and Criterion not met if it falls below.

input_smiles=Cc1cc(C)n(-c2cc(NC(=O)CN3CC[C@@H](N(C)C)C3)nc(-c3ccc(C)o3)n2)n1 cat="Criterion met"
input_smiles=Cc1cc(C)n(-c2cc(NC(=O)CN3CCC[C@@H](CN(C)C)C3)nc(-c3ccc(C)o3)n2)n1 cat="Criterion met"
input_smiles=Cc1cc(C)n(-c2cc(NC(=O)CN3CCCN(C)CC3)nc(-c3ccc(C)o3)n2)n1 cat="Criterion not met"
input_smiles=Cc1cc(C)n(-c2cc(NC(=O)CN3CCCOCC3)nc(-c3ccc(C)o3)n2)n1 cat="Criterion met"
input_smiles=Cc1cc(C)n(-c2cc(NC(=O)CCN3CC[C@H](N(C)C)C3)nc(-c3ccc(C)o3)n2)n1 cat="Criterion met"
input_smiles=Cc1cc(C)n(-c2cc(NC(=O)CN3CC[C@H](CN(C)C)C3)nc(-c3ccc(C)o3)n2)n1 cat="Criterion met"
